Species on record: Rattus norvegicus
Experiment: Open TG-GATES - Regimen: Daily Repeat
Format: toxicity, organism-based, Sprague-Dawley
Set-up: regimen Daily Repeat, gender Male, age 6 weeks
Details: in vivo, po, 1000 mg/kg, […], route gavage, dose level High, time 7 day
The following molecules are listed with their measured TERMINAL_BW values.
# output: bare number, implied unit g

Below, each entry is followed by its recorded TERMINAL_BW result.
- CC(C)(S)[C@@H](N)C(=O)O: 247.8
- O=C(O)c1cccnc1: 270

Record summary for CCN1CCCC1CNC(=O)c1cc(S(N)(=O)=O)ccc1OC (centres undefined) [SULPIRIDE] : reported TERMINAL_BW = 262.7

Record summary for O=C(N[C@H](CO)[C@H](O)c1ccc([N+](=O)[O-])cc1)C(Cl)Cl : reported TERMINAL_BW = 275.6

----------
Organism: Rattus norvegicus
Assay: Open TG-GATES - Regimen: Daily Repeat
Assay type: toxicity, organism-based, Sprague-Dawley
Set-up: regimen Daily Repeat, gender Male, age 6 weeks
Details: in vivo, po, 300 mg/kg, 72 h, tissue Blood, route gavage, dose level Middle, time 3 day
readout-type: Mono (%)
# output: bare number, implied unit %

- CC(C)(S)[C@@H](N)C(=O)O: 3.2
- O=C(N[C@H](CO)[C@H](O)c1ccc([N+](=O)[O-])cc1)C(Cl)Cl: 3.4
- CCN1CCCC1CNC(=O)c1cc(S(N)(=O)=O)ccc1OC (centres undefined) [SULPIRIDE]: 3.4

Switching to the query record.
Record summary for O=C(O)c1cccnc1 : reported Mono = 3.6

----------
Organism: Rattus norvegicus
Experiment: Open TG-GATES - Regimen: Daily Repeat
Type: toxicity, organism-based, Sprague-Dawley
Design: regimen Daily Repeat, gender Male, age 6 weeks
Conditions: in vivo, po, 100 mg/kg, […], tissue Blood, route gavage, dose level Low, time 14 day
readout-type: Ret (%)
# output: bare number, implied unit %

Below, each entry is followed by its recorded Ret result.
* O=C(N[C@H](CO)[C@H](O)c1ccc([N+](=O)[O-])cc1)C(Cl)Cl | 3.8
* CC(C)(S)[C@@H](N)C(=O)O | 3.9
* O=C(O)c1cccnc1 | 4.7

Switching to the query record.
Record summary for CCN1CCCC1CNC(=O)c1cc(S(N)(=O)=O)ccc1OC (centres undefined) [SULPIRIDE] : reported Ret = 4.5

----------
The following molecules are listed with their measured IP values.
Organism: Rattus norvegicus
Experiment: Open TG-GATES - Regimen: Daily Repeat
Type: toxicity, organism-based, Sprague-Dawley
Parameters: regimen Daily Repeat, gender Male, age 6 weeks
Conditions: in vivo, po, 100 mg/kg, […], tissue Plasma, route gavage, dose level Low, time 14 day

* O=C(N[C@H](CO)[C@H](O)c1ccc([N+](=O)[O-])cc1)C(Cl)Cl | 6.5 mg/dL

Record summary for CC(C)(S)[C@@H](N)C(=O)O : reported IP = 6.7 mg/dL

Record summary for CCN1CCCC1CNC(=O)c1cc(S(N)(=O)=O)ccc1OC (centres undefined) [SULPIRIDE] : reported IP = 7.6 mg/dL

Record summary for O=C(O)c1cccnc1 : reported IP = 6.4 mg/dL

----------
Organism: Rattus norvegicus
Assay: Open TG-GATES - Regimen: Daily Repeat
Type: toxicity, organism-based, Sprague-Dawley
Set-up: regimen Daily Repeat, gender Male, age 6 weeks
Conditions: in vivo, po, 100 mg/kg, […], tissue Plasma, route gavage, dose level Low, time 7 day
readout-type: ALP (IU/L)
# output: bare number, implied unit IU/L

Below, each entry is followed by its recorded ALP result.
* CCN1CCCC1CNC(=O)c1cc(S(N)(=O)=O)ccc1OC (centres undefined) [SULPIRIDE] | 1433
* O=C(N[C@H](CO)[C@H](O)c1ccc([N+](=O)[O-])cc1)C(Cl)Cl [CHLORAMPHENICOL] | 1500.2
* CC(C)(S)[C@@H](N)C(=O)O [PENICILLAMINE] | 1699

Switching to the query record.
Record summary for O=C(O)c1cccnc1 [NIACIN] : reported ALP = 1740.2
